Attribute: GI50
# System: ACHN
# protocolNotes: NCI tumour cell line growth inhibition, 48 h
Calls of active or inactive are those of the source. No stated cut-off is given here; in the data, active = GI50 up to about 1.1 µM and inactive = higher.
measurementKind: GI50

1) CC[C@@H]1/C=C/C=C/C[C@H](C)[C@@H](O)[C@@H](C)C(=O)[C@H](C)[C@@H](O)[C@H](C)C(=O)[C@H](C)[C@@H](O)[C@H](C)/C=C/C(=O)O[C@H]2[C@@H](C)[C@@H](CC1)O[C@@]1(CC[C@@H](C)[C@@H](CC(C)O)O1)[C@@H]2C (some centres undefined) = 0.17 µM (active)
2) Cc1nn2c(=O)c([N+](=O)[O-])c(/C=C/c3ccco3)nc2s1 = 60.5 µM (inactive)
3) CO[C@@]12C[C@@H](C)[C@]34O[C@H]3C[C@]3(C)O[C@]43CC1=C(C)C(=O)O2 = > 100 µM (inactive)
4) O=C1OC(c2ccccc2)=N/C1=C\c1cc(Cl)ccc1Cl = > 100 µM (inactive)
5) Nc1nn2c(=O)c3ccccc3nc2s1 = > 100 µM (inactive)
6) Clc1cccc(C2ON=C(c3ccccc3)N2C23CC4CC(CC(C4)C2)C3)c1Cl (centres undefined) = > 10 µM (inactive)
7) COC(=O)C12CC3CC(C1)CC(C(=O)OC)(C3)C2 = > 100 µM (inactive)
8) C1=CC2CCC1CN2CCC1CNc2ccccc21 (centres undefined) = > 100 µM (inactive)
9) CNC(=O)CNC(=O)CCC(=O)OC = > 100 µM (inactive)
